- TARGET DESC: 3-oxo-5-alpha-steroid 4-dehydrogenase 1 (Homo sapiens)
- Sequence (P18405 whole entry): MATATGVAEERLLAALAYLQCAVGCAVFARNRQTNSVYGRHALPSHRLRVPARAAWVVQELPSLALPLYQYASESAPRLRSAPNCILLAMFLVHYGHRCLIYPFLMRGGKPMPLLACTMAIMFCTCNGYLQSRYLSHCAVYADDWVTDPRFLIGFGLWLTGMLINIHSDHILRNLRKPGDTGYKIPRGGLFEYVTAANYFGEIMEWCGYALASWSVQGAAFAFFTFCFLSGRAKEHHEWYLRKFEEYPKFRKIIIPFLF
- ASSAY: Inhibition of recombinant human 5-alpha reductase-1 […] after pre-incubation for 10 minutes
VALUE KIND: Ki (nM)

P: C[C@]12CCC(=O)C=C1NCC1C2CC[C@@]2(C)C1CC[C@@H]2C(=O)NC(c1ccccc1)c1ccccc1 (stereo partly drawn)
Q: C[C@]12CCC(=O)C=C1NCC1C2CC[C@@]2(C)C1CC[C@@H]2C(=O)N(Cc1ccccc1)Cc1ccccc1 (stereo partly drawn)
## Task I need your help: which of the pair P , Q has higher Ki? Let me know the label of the one you choose.
## Result Q
(Q: 75 nM, P: 30 nM)
